Please go through the items and note down their AC50.
test system: S. cerevisiae expressing PfHSP40, growth rescue, plate reader; test: Yeast growth rescue from Plasmodium falciparum HSP40 toxicity, dose response confirmatory, plate reader (AID 540271);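 further: yeast growth read after three days of incubation at 30 °C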

Quick check: AC50 on S. cerevisiae expressing PfHSP40, growth rescue, plate reader, item COc1ccc(-c2cc(C(=O)NNC(=S)NC(=O)c3c(-c4ccccc4)noc3C)[nH]n2)cc1 ? 2.69 µM

Also need COc1ccc2c(n1)Sc1nc3ccccc3nc1N2 , thanks. 1.35 µM

Also need Cc1ccc(SCCNC(=S)Nc2ccc(C)c(C)c2)cc1 , thanks. 6.21 µM

Also need CCCCCCCc1ccc(-c2ccc(O)cc2)nc1 , thanks. 5.12 µM

Also need Nc1nc(-c2ccccc2)c(-c2ccc([N+](=O)[O-])cc2)s1 , thanks. 3.99 µM

Also need CCc1nc2ccccc2c(=O)n1NC(=O)c1c(O)c2ccccc2n(CC)c1=O , thanks. 5.74 µM

Also need O=C(O)c1ccccc1NC(c1ccccc1)c1ccc2cccnc2c1O (centres undefined) , thanks. 2.19 µM

Also need O=S1OC(c2ccccc2)c2cc(Cl)ccc21 (centres undefined) , thanks. 10.8 µM

Also need Cc1csc(NC(=O)C(C)Oc2ccc(Cl)cc2C)n1 (centres undefined) , thanks. 8.4 µM

Also need CC(C)(C)c1ccc(-n2nc(C#N)c(Cl)cc2=O)cc1 , thanks. 6.03 µM

Also need S=C1SCN(Cc2cccnc2)CN1Cc1cccnc1 , thanks. 4.06 µM

Also need O=Nc1c(O)c2ccccc2c2ccccc12 , thanks. 0.902 µM

Also need O=CC1=C(c2ccccc2)Oc2ccccc2O1 , thanks. 2.78 µM

Also need O=C(COC(=O)c1ccc([N+](=O)[O-])o1)NCc1ccc(F)cc1 , thanks. 6.66 µM

Also need Cc1cc(/C=C2\SC(=S)NC2=O)c(C)n1-c1cccc(O)c1 , thanks. 9.83 µM

Also need COc1cc(NS(=O)(=O)c2ccc(C)cc2)c2ncccc2c1 , thanks. 5.4 µM

Also need COc1ccc(-c2oc3ccccc3c2C#Cc2cncn2C)cc1 , thanks. 4.94 µM

Also need O=c1c(O)cccc2cc(O)c(O)c(O)c12 , thanks. 3.63 µM

Also need O/N=C(\c1ccc(Cl)cc1)c1cc2ccccc2o1 , thanks. 5.38 µM

Also need COc1cccc2c1C(=O)c1c(O)c3c(c(O)c1C2=O)C[C@@](O)(C(=O)CO)C[C@@H]3O[C@H]1C[C@H](N)[C@H](O)[C@H](C)O1 , thanks. 6.48 µM

Also need O=C(COc1ccccc1F)Nc1nc(-c2ccccn2)cs1 , thanks. 5.52 µM

Also need CC(=O)Nc1ccc2c(c1)Cc1cc(N3C(=O)C=CC3=O)ccc1-2 , thanks. 0.526 µM

Also need Clc1ccc(C2=NCCN2)cc1 , thanks. 2.38 µM

Also need Cc1cc(C)c(C(=O)CC(=O)c2cccnc2)c(C)c1 , thanks. 2.06 µM
